B1: TMEM106C (parent)
chain: SEQLVNFTGKAEMGGPFSYVYFFC

variants of: B1; assay: protein stability index of a GFP-peptide fusion (GPS, HEK-293T) (PSI 1-6); higher = more stable; conditions: c terminus: a fixed tail appended;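 also: lentivirally expressed fusions sorted by FACS into six bins by GFP to DsRed ratio, PSI derived from sequencing read proportions per bin multiplied by bin number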
protein stability index listing for selected variants.
I'd appreciate a reply containing only the number, no unit.

[[record]]
mutant = "F7D"
recorded_measurement = 2.32

[[record]]
mutant = "Y19R"
recorded_measurement = 2.1

[[record]]
mutant = "E12D"
recorded_measurement = 2.46

[[record]]
mutant = "M13D"
recorded_measurement = 3.13

[[record]]
mutant = "G15P"
recorded_measurement = 4.29


Problem: Annotate the variant A11L with its measured protein stability index.
Solution: 2.92

Problem: Kindly indicate its recorded protein stability index. Item: S1V
Solution: 3.6

Source listed as the supplement of paper PMC10567573.
